The reader will find reported IC50 values listed item by item below.
ASSAY_SYSTEM: cathepsin B (Sus scrofa, UniProt A1E295)
ASSAY_METHOD_TEXT: In-vitro enzymatic activity assay on isolated cathepsin B (pork liver homogenate, Z-FR-AMC substrate)
CONDITIONS_USED: ester prodrug hydrolysed with NaOH to the free acid; 1 hour at 37° C., pH 6.0; read-out: IC50, inhibition of cathepsin B (catB) activity in pork liver homogenate

| COMPOUND | ASSAY_SYSTEM | IC50 |
| --- | --- | --- |
| CC(C)CC(NC(=O)C1OC1C(=O)O)C(=O)NCCC(F)(F)F (centres unmarked) [VRO035_hydrol] | cathepsin B (Sus scrofa, UniProt A1E295) | > 100 nM |
| COCCNC(=O)[C@H](CC(C)C)NC(=O)[C@H]1O[C@@H]1C(=O)O [VRO047_hydrol] | cathepsin B (Sus scrofa, UniProt A1E295) | ≤ 100 nM |
| COCC(NC(=O)C1OC1C(=O)O)C(=O)NCCC(C)C (centres unmarked) [VRO082_hydrol] | cathepsin B (Sus scrofa, UniProt A1E295) | > 100 nM |
| COCCCNC(=O)[C@H](CC(C)C)NC(=O)[C@H]1O[C@@H]1C(=O)O [VRO042_hydrol] | cathepsin B (Sus scrofa, UniProt A1E295) | ≤ 100 nM |
| CC(C)C[C@H](NC(=O)[C@H]1O[C@@H]1C(=O)O)C(=O)NCc1ccccc1F [VRO073_hydrol] | cathepsin B (Sus scrofa, UniProt A1E295) | ≤ 100 nM |

====

ASSAY_SYSTEM: cathepsin B (Sus scrofa)
ASSAY_METHOD_TEXT: In-vitro enzymatic activity assay on isolated cathepsin B (pork liver homogenate, Z-FR-AMC substrate)
CONDITIONS_USED: ester prodrug hydrolysed with NaOH to the free acid; 1 hour at 37° C., pH 6.0; read-out: IC50, inhibition of cathepsin B (catB) activity in pork liver homogenate
The reader will find reported IC50 values listed item by item below.
READOUT_NAME: IC50

| MOLECULE | READOUT_NAME | RESULT |
| --- | --- | --- |
| CC(C)CCN(C)C(=O)[C@H](CC(C)C)NC(=O)[C@H]1O[C@@H]1C(=O)O [VRO006_hydrol] | IC50 | ≤ 100 nM |
| O=C(NCc1ccccc1F)[C@H](CC(F)(F)F)NC(=O)[C@H]1O[C@@H]1C(=O)O [VRO244_hydrol] | IC50 | ≤ 100 nM |
| CC(C)CCNC(=O)[C@H](CC(F)(F)F)NC(=O)[C@H]1O[C@@H]1C(=O)O [VRO109_hydrol] | IC50 | ≤ 100 nM |
| CC(C)CCNC(=O)C(Cc1ccccn1)NC(=O)C1OC1C(=O)O (centres unmarked) [VRO119_hydrol] | IC50 | > 100 nM |
| CC(C)CCNC(=O)C(CC(C)C)N(C)C(=O)C1OC1C(=O)O (centres unmarked) [VRO001_hydrol] | IC50 | > 100 nM |
| CC(C)C[C@H](NC(=O)[C@H]1O[C@@H]1C(=O)O)C(=O)NCCc1ccccn1 [VRO052_hydrol] | IC50 | ≤ 100 nM |
| CC(C)CCN(C)C(=O)C(CC(F)(F)F)NC(=O)C1OC1C(=O)O (centres unmarked) [VRO243_hydrol] | IC50 | > 100 nM |
| CC(C)C[C@H](NC(=O)[C@H]1O[C@@H]1C(=O)O)C(=O)NCCCN1CCCCC1 [VRO059_hydrol] | IC50 | ≤ 100 nM |

====

ASSAY_SYSTEM: cathepsin B (Sus scrofa)
Construct: from tissue; host or cells: pork liver homogenate
ASSAY_METHOD_TEXT: In-vitro enzymatic activity assay on isolated cathepsin B (pork liver homogenate, Z-FR-AMC substrate)
Assay type: biochemical
CONDITIONS_USED: pork liver homogenate; result in words
READOUT_NAME: inhibitory activity against isolated catB, compared to E64c

| MOLECULE | RESULT |
| --- | --- |
| CC(C)C[C@H](NC(=O)[C@H]1O[C@@H]1C(=O)O)C(=O)NCCc1ccccn1 [VRO052_hydrol] | only slightly reduced |
| CC(C)C[C@H](NC(=O)[C@H]1O[C@@H]1C(=O)O)C(=O)NCc1ccccc1F [VRO073_hydrol] | only slightly reduced |
